Source: patent US8993606B2

Test: Example 8: single-dose study in healthy human subjects 3-16 mg/kg (PK)
Type: in vivo
Conditions: male, human, plasma, po, 16 mg/kg, single oral dose 16 mg/kg; mean of 3 subjects; read-out: AUC0-t
valueKind: AUC(0-t)

Incoming: Need AUC(0-t) of COCCOCCOCCOc1cccc(C2=N[C@@](C)(C(=O)O)CS2)c1O [Compound 1] , thanks.
Outgoing: 75400 ng·h/mL

---

Test: Example 4: seven-day dosing in iron-overloaded human subjects (PK, tolerability)
Format: in vivo
Details: human, plasma; 8 mg/kg daily 7 days oral
valueKind: Cmax (ng/mL)
Enter your answer as a number in ng/mL; do not include the unit.

Incoming: Using the record for `COCCOCCOCCOc1cccc(C2=N[C@@](C)(C(=O)O)CS2)c1O` , report its Cmax.
Outgoing: 15000

---

Test: Example 5: single-dose study in iron-overloaded human subjects (PK)
Type: in vivo
Conditions: male, human, plasma, oral, 6-32 mg/kg single dose; read-out: terminal half-life, range
valueKind: half-life

Incoming: Could you share which half-life value was measured for `COCCOCCOCCOc1cccc(C2=N[C@@](C)(C(=O)O)CS2)c1O` ?
Outgoing: 16 to 30 h

---

Test: Example 7: high single doses in healthy human subjects (PK)
Format: in vivo
Conditions: both sexes, human, plasma; single oral dose 30 mg/kg, fasted
valueKind: Cmax (µg/mL)
Just the number in µg/mL, nothing appended.

Incoming: Which Cmax value belongs to `COCCOCCOCCOc1cccc(C2=N[C@@](C)(C(=O)O)CS2)c1O` ?
Outgoing: 68.2

---

Test: Example 8: single-dose study in healthy human subjects 3-16 mg/kg (PK)
Format: in vivo
Conditions: male, human, plasma; single oral dose 10 mg/kg; mean
valueKind: AUC(0-inf) (ng·h/mL)
Express your answer in ng·h/mL, writing the number without its unit.

Incoming: Consider the molecule `COCCOCCOCCOc1cccc(C2=N[C@@](C)(C(=O)O)CS2)c1O` and give its measured AUC(0-inf).
Outgoing: 43600

---

Test: Example 8: single-dose study in healthy human subjects 3-16 mg/kg (PK)
Format: in vivo
Settings: male, human, plasma, po, 3 mg/kg, single oral dose 3 mg/kg; mean of 3 subjects; read-out: AUC0-t
valueKind: AUC(0-t) (ng·h/mL)
Report the figure in ng·h/mL without appending any unit label.

Incoming: AUC(0-t) lookup needed for `COCCOCCOCCOc1cccc(C2=N[C@@](C)(C(=O)O)CS2)c1O` , thanks.
Outgoing: 12100

---

Assay: Example 7: high single doses in healthy human subjects (PK)
Type: in vivo
Details: both sexes, human, plasma; single oral dose 50 mg/kg, fasted; read-out: t½ (converted)
Experimental: Subjects were male and female healthy human volunteers aged between 18 and 50 years, free from clinically significant illness or disease as determined by their medical/surgical history, physical examination etc., and having a serum ferritin>20 ng/mL. […] PK plasma and PK urine samples were assayed by a validated LC/MS/MS method, specific for the determination of Compound 1. Pharmacokinetic parameters for Compound 1 will be calculated using non-compartmental analysis. […]
valueKind: half-life
Please give the number followed by its unit.

Incoming: Consider the compound `COCCOCCOCCOc1cccc(C2=N[C@@](C)(C(=O)O)CS2)c1O` and give its measured half-life.
Outgoing: 12.8 h

---

Assay: Example 9: single-dose study in healthy human subjects 30-75 mg/kg and 20 mg/kg x 2 (PK)
Format: in vivo
Conditions: human, plasma, oral; across cohorts; read-out: median values for Tmax, range
valueKind: Tmax

Incoming: I am curious: what Tmax value has been reported for `COCCOCCOCCOc1cccc(C2=N[C@@](C)(C(=O)O)CS2)c1O` ?
Outgoing: 1 to 1.5 h

---

Assay: Example 4: seven-day dosing in iron-overloaded human subjects (PK, tolerability)
Type: in vivo
Details: human, plasma; 32 mg/kg daily 7 days oral; read-out: t½ (converted)
valueKind: half-life (h)
Kindly provide the numeric value in h only, without the unit symbol.

Incoming: half-life for `COCCOCCOCCOc1cccc(C2=N[C@@](C)(C(=O)O)CS2)c1O` ?
Outgoing: 18.7

---

Experiment: Example 8: single-dose study in healthy human subjects 3-16 mg/kg (PK)
Assay type: in vivo
Conditions: male, human, plasma, po, 10 mg/kg, single oral dose 10 mg/kg; mean of 3 subjects; read-out: AUC0-t
valueKind: AUC(0-t) (ng·h/mL)
All answers are understood in ng·h/mL, so give the number only.

Incoming: I'd like to know its AUC(0-t). The compound in question is `COCCOCCOCCOc1cccc(C2=N[C@@](C)(C(=O)O)CS2)c1O`
Outgoing: 43400

---

Experiment: Example 7: high single doses in healthy human subjects (PK)
Type: in vivo
Conditions: both sexes, human, plasma; single oral dose 30 mg/kg, fasted; read-out: Vz/F
valueKind: Vd/F

Incoming: Which Vd/F is reported for this compound? `COCCOCCOCCOc1cccc(C2=N[C@@](C)(C(=O)O)CS2)c1O`
Outgoing: 248 L

---

Experiment: Example 8: single-dose study in healthy human subjects 3-16 mg/kg (PK)
Type: in vivo
Conditions: male, human, plasma; single oral dose 16 mg/kg; mean
valueKind: AUC(0-inf) (ng·h/mL)
Give the value in ng·h/mL but do not write ng·h/mL after it.

Incoming: # query: AUC(0-inf) of entry `COCCOCCOCCOc1cccc(C2=N[C@@](C)(C(=O)O)CS2)c1O`
Outgoing: 75600

---

Experiment: Example 9: single-dose study in healthy human subjects 30-75 mg/kg and 20 mg/kg x 2 (PK)
Type: in vivo
Conditions: human, plasma; single oral dose 60 mg/kg; read-out: VZ/F
Experimental: Example 9 was a single-dose escalating study in healthy volunteers. The objectives of the study were to assess the safety, tolerability, pharmacokinetic, and pharmacodynamics of single ascending doses of Compound 1. The doses tested were 30, 40, 50, 60, and 75 mg/kg once daily and a regimen of 20 mg/kg twice a day, which extended the range of doses evaluated. This Example confirms the earlier results obtained with higher dosage, as described in Example 7. […]
valueKind: Vd/F (L)
# value in L; strip the unit string

Incoming: Consider the compound `COCCOCCOCCOc1cccc(C2=N[C@@](C)(C(=O)O)CS2)c1O` and give its measured Vd/F.
Outgoing: 454

---

Test: Example 9: single-dose study in healthy human subjects 30-75 mg/kg and 20 mg/kg x 2 (PK)
Assay type: in vivo
Conditions: human, plasma; single oral dose 30 mg/kg; read-out: VZ/F
valueKind: Vd/F
Please give the number followed by its unit.

Incoming: GET /values?readout=Vd/F&item= COCCOCCOCCOc1cccc(C2=N[C@@](C)(C(=O)O)CS2)c1O [Compound 1]
Outgoing: 248 L

---

Test: Example 7: high single doses in healthy human subjects (PK)
Assay type: in vivo
Details: both sexes, human, plasma; single oral dose 60 mg/kg, fasted
valueKind: Tmax
# include the unit after the value

Incoming: Fill in: Tmax of `COCCOCCOCCOc1cccc(C2=N[C@@](C)(C(=O)O)CS2)c1O` is ___
Outgoing: 1.25 h

---

Test: Example 6: multiple-dose study in iron-overloaded human subjects (PK)
Assay type: in vivo
Conditions: both sexes, human, plasma; 16 mg/kg/day, 7 days oral; N = 4
valueKind: Cmax (ng/mL)
Report the value in ng/mL with no unit label.

Incoming: Give the measured Cmax of `COCCOCCOCCOc1cccc(C2=N[C@@](C)(C(=O)O)CS2)c1O` .
Outgoing: 38200

---

Assay: Example 5: single-dose study in iron-overloaded human subjects (PK)
Format: in vivo
Conditions: human, plasma; single oral dose 10 mg/kg, subject 2
valueKind: AUC(0-inf) (ng·h/mL)
# unit: ng·h/mL | format: bare number

Incoming: Need AUC(0-inf) of COCCOCCOCCOc1cccc(C2=N[C@@](C)(C(=O)O)CS2)c1O [Compound 1] , thanks.
Outgoing: 69700

---

Experiment: Example 8: single-dose study in healthy human subjects 3-16 mg/kg (PK)
Format: in vivo
Settings: male, human, plasma; single oral dose 6 mg/kg; mean of 3 subjects
valueKind: Tmax (min)
Provide the reading as a plain figure in min.

Incoming: Need Tmax of `COCCOCCOCCOc1cccc(C2=N[C@@](C)(C(=O)O)CS2)c1O` , thanks.
Outgoing: 55.2

---

Assay: Example 5: single-dose study in iron-overloaded human subjects (PK)
Type: in vivo
Details: male, human, plasma, oral; averaged across all dose levels; read-out: mean tmax
valueKind: Tmax (min)
The response must be a number in min with no trailing unit.

Incoming: For the compound COCCOCCOCCOc1cccc(C2=N[C@@](C)(C(=O)O)CS2)c1O [Compound 1] , what Tmax is on record?
Outgoing: 55.5

---

Test: Example 4: seven-day dosing in iron-overloaded human subjects (PK, tolerability)
Format: in vivo
Conditions: human, plasma; 32 mg/kg daily 7 days oral
valueKind: Tmax (h)
Number only, in h; omit the unit.

Incoming: // returns reported Tmax for input `COCCOCCOCCOc1cccc(C2=N[C@@](C)(C(=O)O)CS2)c1O`
Outgoing: 1.49

---

Test: Example 9: single-dose study in healthy human subjects 30-75 mg/kg and 20 mg/kg x 2 (PK)
Type: in vivo
Conditions: human, plasma, oral; 20 mg/kg × 2; for the total dose of 40 mg/kg
valueKind: AUC(0-inf) (µg·h/mL)
Supply the numeric figure in µg·h/mL, leaving out any unit text.

Incoming: Data request, read-out AUC(0-inf), for `COCCOCCOCCOc1cccc(C2=N[C@@](C)(C(=O)O)CS2)c1O`
Outgoing: 231
